Each entry below lists one item and its recorded pIC50 value.
Molecular target: KRAS G12D (Homo sapiens (Human), UniProt P01116+P62937, G12D)
Sequence (P01116-2 other isoform, or with tags, fused parts or gaps G12D): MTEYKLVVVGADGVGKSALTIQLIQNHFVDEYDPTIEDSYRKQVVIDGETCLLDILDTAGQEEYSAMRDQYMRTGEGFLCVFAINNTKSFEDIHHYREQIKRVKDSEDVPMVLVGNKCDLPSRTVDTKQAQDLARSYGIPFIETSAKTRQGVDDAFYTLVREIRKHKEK
Sequence (P62937 whole entry): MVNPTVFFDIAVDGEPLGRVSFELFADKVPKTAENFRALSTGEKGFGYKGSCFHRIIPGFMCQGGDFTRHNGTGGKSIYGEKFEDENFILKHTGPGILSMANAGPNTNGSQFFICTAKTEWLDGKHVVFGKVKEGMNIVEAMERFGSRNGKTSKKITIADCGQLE
Assay: Ras-Raf (BRAF RBD) disruption / FRET / MOA assay, KRAS G12D
Type: biochemical
Conditions: Ras-Raf disruption/FRET/MOA assay; class symbols; read-out: KRAS G12D FRET data IC50
Protocol: The purpose of this biochemical assay is to measure the ability of test compounds to facilitate ternary complex formation between a nucleotide-loaded Ras isoform and cyclophilin A; the resulting ternary complex disrupts binding to a BRAF^RBD construct, inhibiting Ras signaling through a RAF effector. Compound is present in plate wells as a 10-point 3-fold dilution series starting at a final concentration of 30 μM. […]
pIC50: −log10 of the molar value.
Value kind: pIC50

Compound: C=CC(=O)N1CC[C@@]2(C1)OCN([C@H](C(=O)N[C@H]1Cc3cccc(c3)-c3ccc4c(c3)c(c(-c3cccnc3[C@H](C)OC)n4CC)CC(C)(C)COC(=O)[C@@H]3CCCN(N3)C1=O)C(C)C)C2=O (atropisomer, axis not shown)
Value kind: pIC50
Readout value: 5.00 to 6.00
//
Compound: CCn1c(-c2cccnc2[C@H](C)OC)c2c3cc(ccc31)-c1csc(n1)C[C@H](NC(=O)[C@H](C(C)C)N(C)C(=O)N1CCC3(CC1)CN(C(=O)/C=C/CN1CCOCC1)C3)C(=O)N1CCC[C@H](N1)C(=O)OCC(C)(C)C2 (atropisomer, axis not shown)
Value kind: pIC50
Readout value: 6.00 to 7.00
//
Compound: C=CC(=O)N1CC(C(=O)N(C)[C@H](C(=O)N[C@H]2Cc3cccc(c3)-c3ccc4c(c3)c(c(-c3cccnc3[C@H](C)OC)n4CC)CC(C)(C)COC(=O)[C@@H]3CCCN(N3)C2=O)C(C)C)C1 (atropisomer, axis not shown)
Value kind: pIC50
Readout value: < 5.00
//
Compound: C=CC(=O)N1CC2(CCN2C(=O)N(C)[C@H](C(=O)N[C@H]2Cc3cccc(c3)-c3ccc4c(c3)c(c(-c3cccnc3[C@H](C)OC)n4CC)CC(C)(C)COC(=O)[C@@H]3CCCN(N3)C2=O)C(C)C)C1 (atropisomer, axis not shown)
Value kind: pIC50
Readout value: 5.00 to 6.00

====

Target: KRAS WT (Homo sapiens (Human), UniProt P01116+P62937)
Sequence (P01116-2 other isoform, or with tags, fused parts or gaps, one chain of several): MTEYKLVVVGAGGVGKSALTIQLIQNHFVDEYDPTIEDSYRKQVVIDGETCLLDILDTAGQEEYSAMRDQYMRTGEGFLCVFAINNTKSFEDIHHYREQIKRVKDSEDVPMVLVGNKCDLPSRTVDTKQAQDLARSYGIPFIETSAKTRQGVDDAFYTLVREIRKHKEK
Assay: Ras-Raf (BRAF RBD) disruption / FRET / MOA assay, KRAS WT
Type: biochemical
Settings: read-out: IC50* KRAS WT FRET data
Procedure: The purpose of this biochemical assay is to measure the ability of test compounds to facilitate ternary complex formation between a nucleotide-loaded Ras isoform and cyclophilin A; the resulting ternary complex disrupts binding to a BRAF^RBD construct, inhibiting Ras signaling through a RAF effector. Compound is present in plate wells as a 10-point 3-fold dilution series starting at a final concentration of 30 μM. […]
Each entry below lists one item and its recorded IC50 value.
Value kind: IC50

Compound: CCn1c(-c2cccnc2[C@H](C)OC)c2c3cc(ccc31)N1CCO[C@@H](C[C@H](NC(=O)[C@H](C(C)C)N3CC[C@@]4(CCN(C(=O)C#CC(C)(C)N(C)C)C4)C3=O)C(=O)N3CCC[C@H](N3)C(=O)OCC(C)(C)C2)C1 (atropisomer, axis not shown)
Readout value: > 10000 nM
--
Compound: CCn1c(-c2cccnc2[C@H](C)OC)c2c3cc(ccc31)-c1csc(n1)C[C@H](NC(=O)[C@H](C(C)C)N(C)C(=O)N1CCC3(CC1)CN(C(=O)/C=C/CN1CCOCC1)C3)C(=O)N1CCC[C@H](N1)C(=O)OCC(C)(C)C2 (atropisomer, axis not shown)
Readout value: 100 to 1000 nM
--
Compound: C=CC(=O)N1CC[C@H](C(=O)N(C)[C@H](C(=O)N[C@@H]2C(=O)N3CCC[C@H](N3)C(=O)OCC(C)(C)Cc3c(-c4cncnc4)n(CC)c4ccc(cc34)-c3cccc(c3)[C@H]2O)C(C)C)C1
Readout value: > 10000 nM
--
Compound: C=CS(=O)(=O)N1CCC2(CCN([C@H](C(=O)N[C@H]3Cc4cc(O)cc(c4)-c4ccc5c(c4)c(c(-c4cccnc4[C@H](C)OC)n5CC)CC(C)(C)COC(=O)[C@@H]4CCCN(N4)C3=O)C(C)C)C2=O)C1 (stereo partly drawn)
Readout value: 10 to 100 nM
--
Compound: CCn1c(-c2cccnc2[C@H](C)OC)c2c3cc(ccc31)-c1cc(O)cc(c1)C[C@H](NC(=O)[C@H](C(C)C)N1CC[C@]3(CCN(C(=O)/C=C/CN(C)C)C3)C1=O)C(=O)N1CCC[C@H](N1)C(=O)OCC(C)(C)C2 (atropisomer, axis not shown)
Readout value: 10 to 100 nM
--
Compound: C=CC(=O)N1CC[C@H](C(=O)N(C)[C@H](C(=O)N[C@H]2Cc3cc(O)cc(c3)-c3ccc4c(c3)c(c(-c3cc(C#N)cnc3COC)n4CC)CC(C)(C)COC(=O)[C@@H]3CCCN(N3)C2=O)C(C)C)C1
Readout value: 100 to 1000 nM
--
Compound: C=CC(=O)N(C)CCN1CCN(C(=O)N(C)[C@H](C(=O)N[C@H]2Cc3cccc(c3)-c3ccc4c(c3)c(c(-c3cccnc3[C@H](C)OC)n4CC)CC(C)(C)COC(=O)[C@@H]3CCCN(N3)C2=O)C(C)C)C[C@H]1C (atropisomer, axis not shown)
Readout value: 100 to 1000 nM
--
Compound: CCn1c(-c2cccnc2[C@H](C)OC)c2c3cc(ccc31)-c1csc(n1)C[C@H](NC(=O)[C@H](C(C)C)N(C)C(=O)N1CCC3(CC1)CN(C(=O)/C=C/CN(C)C)C3)C(=O)N1CCC[C@H](N1)C(=O)OCC(C)(C)C2 (atropisomer, axis not shown)
Readout value: 100 to 1000 nM
--
Compound: CCn1c(-c2cccnc2[C@H](C)OC)c2c3cc(ccc31)-c1cc(O)cc(c1)C[C@H](NC(=O)[C@H](C(C)C)N(C)C(=O)c1ncc(NC(=O)/C=C/CN(C)C)n1C)C(=O)N1CCC[C@H](N1)C(=O)OCC(C)(C)C2
Readout value: 100 to 1000 nM
--
Compound: C=CC(=O)N1CCO[C@H]2CN(C(=O)N(C)[C@H](C(=O)N[C@H]3Cc4nc(cs4)-c4ccc5c(c4)c(c(-c4cccnc4[C@H](C)OC)n5CC)CC(C)(C)COC(=O)[C@@H]4CCCN(N4)C3=O)C(C)C)C[C@@H]21 (atropisomer, axis not shown)
Readout value: 100 to 1000 nM
--
Compound: C=CC(=O)N1CC[C@H](C(=O)N(CC)[C@H](C(=O)N[C@H]2Cc3cccc(c3)-c3ccc4c(c3)c(c(-c3cccnc3[C@H](C)OC)n4CC)CC(C)(C)COC(=O)[C@@H]3CCCN(N3)C2=O)C(C)C)C1 (atropisomer, axis not shown)
Readout value: 1000 to 10000 nM
--
Compound: CCn1c(-c2cccnc2[C@H](C)OC)c2c3cc(ccc31)-c1cccc(c1)C[C@H](NC(=O)[C@H](C(C)C)N1CC[C@@]3(CCN(C(=O)C#CC(C)(C)N(C)C)C3)C1=O)C(=O)N1CCC[C@H](N1)C(=O)OCC(C)(C)C2 (atropisomer, axis not shown)
Readout value: > 10000 nM
--
Compound: C=CC(=O)N1CCOC2(CCN(C(=O)N(C)[C@H](C(=O)N[C@H]3C[C@H]4CN(CCO4)c4ccc5c(c4)c(c(-c4cccnc4[C@H](C)OC)n5CC)CC(C)(C)COC(=O)[C@@H]4CCCN(N4)C3=O)C(C)C)CC2)C1
Readout value: 100 to 1000 nM
--
Compound: CCn1c(-c2cccnc2[C@H](C)OC)c2c3cc(ccc31)-c1cc(O)cc(c1)C[C@H](NC(=O)[C@H](C(C)C)N(C)C(=O)C1CN(C(=O)/C=C/CN(C)C)C1)C(=O)N1CCC[C@H](N1)C(=O)OCC(C)(C)C2 (atropisomer, axis not shown)
Readout value: 100 to 1000 nM
--
Compound: C=CC(=O)N(C)C(=O)N(C)[C@H](C(=O)N[C@H]1Cc2nc(cs2)-c2ccc3c(c2)c(c(-c2cccnc2[C@H](C)OC)n3CC)CC(C)(C)COC(=O)[C@@H]2CCCN(N2)C1=O)C(C)C (atropisomer, axis not shown)
Readout value: > 10000 nM

====

Biological target: KRAS WT (Homo sapiens (Human), UniProt P01116+P62937)
Assay: Ras-Raf (BRAF RBD) disruption / FRET / MOA assay, KRAS WT
Type: biochemical
Details: read-out: IC50* KRAS WT FRET data
Each entry below lists one item and its recorded IC50 value.

Compound: CCn1c(-c2cccnc2[C@H](C)OC)c2c3cc(ccc31)-c1cccc(c1)C[C@H](NC(=O)[C@H](C(C)C)N1CO[C@@]3(CCN(C(=O)/C=C/CN(C)C)C3)C1=O)C(=O)N1CCC[C@H](N1)C(=O)OCC(C)(C)C2 (atropisomer, axis not shown) [Example A558]
IC50: 100 to 1000 nM
--
Compound: C=CC(=O)N1CC2(CCN(C(=O)N(C)[C@H](C(=O)N[C@H]3Cc4nc(cs4)-c4ccc5c(c4)c(c(-c4cccnc4[C@H](C)OC)n5CC)CC(C)(C)COC(=O)[C@@H]4CCCN(N4)C3=O)C(C)C)CC2)C1 (atropisomer, axis not shown) [Example A394]
IC50: 100 to 1000 nM

These measurements were taken from patent US11566007B2.
